assay: activity coefficient (dimensionless); of the first substance listed, at infinite dilution; xn = mol fraction of the nth substance listed; settings: 333.25 K; 101.33 kPa; Liquid; Chromatography; x1 = 0
quantity.name: activity coefficient

Sample records with activity coefficient:
CCCOC(C)=O [propyl ethanoate] + O
351
CCCOCCC [dipropyl ether] + O
3230
CCO [ethanol] + O
5.76
CCOCC [diethyl ether] + O
158
CC(C)=O [acetone] + O
10.3

1: CCCC(C)=O [pentan-2-one] + O
2: CCOC=O [ethyl methanoate] + O
3: COC(C)(C)C [2-methoxy-2-methylpropane] + O
4: CCC(C)(C)OC [2-methoxy-2-methylbutane] + O
-- ask Arrange the 4 compounds by rising activity coefficient, starting with the smallest. I would appreciate it if you listed the labels in the requested order.
-- reply 2, 1, 3, 4
(2: 57.7, 1: 135, 3: 278, 4: 1080)

A: COC(C)=O [methyl ethanoate] + O
B: CC(C)OC(C)C [diisopropyl ether] + O
-- ask Thinking about recorded activity coefficient values, which is higher, A or B ? Answer by quoting the chosen item's label.
-- reply B
(B: 1310, A: 31.2)

a: COC=O [methyl methanoate] + O
b: CCOC(C)=O [ethyl acetate] + O
-- ask Thinking about recorded activity coefficient values, which is higher, a or b ? Answer by quoting the chosen item's label.
-- reply b
(b: 94.7, a: 19.8)
